Tested on: G3BP1 NFT2
Assay type: binding, human
experimental-conditions: library DMS-CoV; bait G3BP1 NFT2; prey N; peptide APRITFGGPSDSTGSN; listed as aa = residue placed at this position; column sums to 1
property-name: DMS PSSM value, D (position 11)

>>> print(df.to_string())
                            sequence_record  assay_system  reported_value
0  APRITFGGPSDSTGSN D11F (APRITFGGPSFSTGSN)    G3BP1 NFT2        0.001494
1  APRITFGGPSDSTGSN D11E (APRITFGGPSESTGSN)    G3BP1 NFT2         0.08423
2  APRITFGGPSDSTGSN D11A (APRITFGGPSASTGSN)    G3BP1 NFT2          0.0135
3  APRITFGGPSDSTGSN D11Q (APRITFGGPSQSTGSN)    G3BP1 NFT2        0.007406
4  APRITFGGPSDSTGSN D11W (APRITFGGPSWSTGSN)    G3BP1 NFT2        0.001161
5  APRITFGGPSDSTGSN D11H (APRITFGGPSHSTGSN)    G3BP1 NFT2        0.001494
6  APRITFGGPSDSTGSN D11Y (APRITFGGPSYSTGSN)    G3BP1 NFT2         0.02603
7  APRITFGGPSDSTGSN D11N (APRITFGGPSNSTGSN)    G3BP1 NFT2         0.02182
8  APRITFGGPSDSTGSN D11I (APRITFGGPSISTGSN)    G3BP1 NFT2        0.002718

====

System: PABPC1 PABC
Type: binding, human
experimental-conditions: DMS-BM library, bait PABPC1 PABC, prey ATXN2, TLNPNAKEFNPRSF(averaged) over the two overlapping peptides; F = wild type, row aa = residue at this position
Catalogue of DMS-derived PSSM value (averaged), position F9 readings, one per entry.
property-name: DMS-derived PSSM value (averaged), position F9

In [3]: df
Out[3]:
                                  substance  assay_system  reported_value
0  TLNPNAKEFNPRSF(averaged) F9K (TLNPNAKEKNPRSF)   PABPC1 PABC        0.003046
1  TLNPNAKEFNPRSF(averaged) F9L (TLNPNAKELNPRSF)   PABPC1 PABC               0
2  TLNPNAKEFNPRSF(averaged) F9Y (TLNPNAKEYNPRSF)   PABPC1 PABC          0.1609
3  TLNPNAKEFNPRSF(averaged) F9G (TLNPNAKEGNPRSF)   PABPC1 PABC               0
4  TLNPNAKEFNPRSF(averaged) F9N (TLNPNAKENNPRSF)   PABPC1 PABC         0.04813

====

Catalogue of DMS-derived PSSM value (averaged), position L2 readings, one per entry.
Tested on: PABPC1 PABC
Assay type: binding, human
experimental-conditions: DMS-BM library, bait PABPC1 PABC, prey ATXN2, TLNPNAKEFNPRSF(averaged) over the two overlapping peptides; L = wild type, row aa = residue at this position
property-name: DMS-derived PSSM value (averaged), position L2

In [3]: df
Out[3]:
                                  substance  assay_system  reported_value
0  TLNPNAKEFNPRSF(averaged) L2N (TNNPNAKEFNPRSF)   PABPC1 PABC               0
1  TLNPNAKEFNPRSF(averaged) L2P (TPNPNAKEFNPRSF)   PABPC1 PABC         0.01878
2  TLNPNAKEFNPRSF(averaged) L2W (TWNPNAKEFNPRSF)   PABPC1 PABC         0.07274
3  TLNPNAKEFNPRSF(averaged) L2K (TKNPNAKEFNPRSF)   PABPC1 PABC       0.0007818

====

assay-system: NSP3 SUD-M (Severe acute respiratory syndrome coronavirus 2, UniProt P0DTC1)
protocol-summary: biochemical
Format: binding, SARS‐CoV‐2
pKd: −log10 of the molar value.
pKd of 5 or higher: fulfilled. Under 5: not fulfilled.

In [3]: df
Out[3]:
                                 substance  discrete_label
0     Ac-QFTEEDLHFVLYGVTPY-NH2 [PRDM14 wt]   not fulfilled
1  Ac-QFTEEELHFVLYGVTPY-NH2 [PRDM14 D201E]       fulfilled
2  Ac-QFTEEALHFVLYGVTPY-NH2 [PRDM14 D201A]   not fulfilled
3  Ac-QFTEENLHFVLYGVTPY-NH2 [PRDM14 D201N]   not fulfilled
4  Ac-QFTEEDLHFVLEGVTPY-NH2 [PRDM14 Y207E]   not fulfilled

====

Tested on: G3BP1 NFT2
Type: binding, human
experimental-conditions: library DMS-CoV; bait G3BP1 NFT2; prey N; peptide RNAPRITFGGPSDSTG; listed as aa = residue placed at this position; column sums to 1
Catalogue of DMS PSSM value, G (position 10) readings, one per entry.
property-name: DMS PSSM value, G (position 10)

>>> print(df.to_string())
                            sequence_record  assay_system  reported_value
0  RNAPRITFGGPSDSTG G10R (RNAPRITFGRPSDSTG)    G3BP1 NFT2               0
1  RNAPRITFGGPSDSTG G10I (RNAPRITFGIPSDSTG)    G3BP1 NFT2               0
2  RNAPRITFGGPSDSTG G10S (RNAPRITFGSPSDSTG)    G3BP1 NFT2               0
3  RNAPRITFGGPSDSTG G10E (RNAPRITFGEPSDSTG)    G3BP1 NFT2               0
4  RNAPRITFGGPSDSTG G10Q (RNAPRITFGQPSDSTG)    G3BP1 NFT2               0
5  RNAPRITFGGPSDSTG G10H (RNAPRITFGHPSDSTG)    G3BP1 NFT2               0
6  RNAPRITFGGPSDSTG G10T (RNAPRITFGTPSDSTG)    G3BP1 NFT2               0
7  RNAPRITFGGPSDSTG G10Y (RNAPRITFGYPSDSTG)    G3BP1 NFT2               0
8  RNAPRITFGGPSDSTG G10V (RNAPRITFGVPSDSTG)    G3BP1 NFT2               0

====

assay-system: NSP3 UBl1 (Severe acute respiratory syndrome coronavirus 2, UniProt P0DTC1)
protocol-summary: biochemical
Assay type: binding, SARS‐CoV‐2
Catalogue of IC50 readings, one per entry.
property-name: IC50 (µM)

In [3]: df
Out[3]:
                                  substance  property_name  measurement_unit  reported_value
0  Ac-PSDEQALLQQLYLALR-NH2 [NCOA2 G1077Q D1081Q]           IC50                µM            66.2
1    Ac-PSDEQALLDQLYLALR-NH2 [NCOA2 G1077Q]           IC50                µM              98
2        Ac-PSDEGALLDQLYLALR-NH2 [NCOA2 wt]           IC50                µM             139
3    Ac-PSDEGALLQQLYLALR-NH2 [NCOA2 D1081Q]           IC50                µM             108

====

Test system: PABPC1 PABC
Format: binding, human
experimental-conditions: DMS-BM library, bait PABPC1 PABC, prey ATXN2, peptide KSTLNPNAKEFNPRSF; K = wild type, row aa = residue at this position
Catalogue of DMS-derived PSSM value, position K9 readings, one per entry.
property-name: DMS-derived PSSM value, position K9

                           sequence_record  reported_value
0  KSTLNPNAKEFNPRSF K9N (KSTLNPNANEFNPRSF)          0.1194
1  KSTLNPNAKEFNPRSF K9Y (KSTLNPNAYEFNPRSF)         0.02328
2  KSTLNPNAKEFNPRSF K9I (KSTLNPNAIEFNPRSF)          0.4039
3  KSTLNPNAKEFNPRSF K9R (KSTLNPNAREFNPRSF)          0.0319
4  KSTLNPNAKEFNPRSF K9D (KSTLNPNADEFNPRSF)        0.007291
5  KSTLNPNAKEFNPRSF K9E (KSTLNPNAEEFNPRSF)          0.0298
6  KSTLNPNAKEFNPRSF K9A (KSTLNPNAAEFNPRSF)        0.002649
7  KSTLNPNAKEFNPRSF K9F (KSTLNPNAFEFNPRSF)         0.02411
